STUDY_SYSTEM: HCV NS3-4A protease (Hepatitis C virus genotype 1a)
Construct: HCV NS3-4A protease
ASSAY_OVERVIEW: HCV NS3-4A protease assay in vitro (FRET-S substrate)
Format: biochemical
EXPERIMENTAL_SETUP: HCV NS3-4A protease inhibition, 37° C., class symbols; read-out: NS3-NS4A IC50
pIC50: −log10 of the molar value.
ATTRIBUTE_MEASURED: pIC50

[
  {
    "COMPOUND": "C=C[C@H]1C[C@@]1(NC(=O)C1C[C@@H](OC(=O)N2Cc3ccc4c(c3C2)OCO4)CN1C(=O)[C@@H](NC(=O)OC1CCCC1)C(C)(C)C)C(=O)NS(=O)(=O)C1CC1 (some centres unmarked) [Compound 30an]",
    "RESULT": "> 7.52"
  },
  {
    "COMPOUND": "CC[C@H]1C[C@@]1(NC(=O)C1C[C@@H](OC(=O)N2Cc3cc4c(cc3C2)OCO4)CN1C(=O)[C@@H](NC(=O)OC(C)(C)C)C(C)(C)C)C(=O)NS(=O)(=O)C1CC1 (some centres unmarked) [Compound 30ag]",
    "RESULT": "> 7.52"
  },
  {
    "COMPOUND": "CC(C)(C)OC(=O)N[C@H]1CCCCC/C=C\\[C@@H]2C[C@@]2(C(=O)NS(=O)(=O)C2CC2)NC(=O)[C@@H]2C[C@@H](OC(=O)N3Cc4cc5c(cc4C3)OCCCO5)CN2C1=O [Compound 12p]",
    "RESULT": "> 7.52"
  },
  {
    "COMPOUND": "C=C[C@H]1C[C@@]1(NC(=O)C1C[C@@H](OC(=O)N2Cc3cccc(F)c3C2)CN1C(=O)[C@@H](NC(=O)OC(C)(C)C)C(C)(C)C)C(=O)NS(=O)(=O)C1CC1 (some centres unmarked) [Compound 30aj]",
    "RESULT": "> 7.52"
  }
]

Lab note: next compound to report on.
## Input GET /values?readout=pIC50&item= O=C1N[C@]2(C(=O)NS(=O)(=O)C3CC3)C[C@H]2/C=C\CCCCCN(C2CC2)C(=O)N2CC(OC(=O)N3Cc4cccc(F)c4C3)C[C@@H]12 (some centres unmarked) [Compound 27-Ref-2, reference compound]
## Output 6.70 to 7.52

---

For each of the compounds below, state its IC50.
STUDY_SYSTEM: HCV NS3-4A protease (Hepatitis C virus genotype 1a, UniProt P27958)
Construct: HCV NS3-4A protease
Sequence (P27958 1027-1657): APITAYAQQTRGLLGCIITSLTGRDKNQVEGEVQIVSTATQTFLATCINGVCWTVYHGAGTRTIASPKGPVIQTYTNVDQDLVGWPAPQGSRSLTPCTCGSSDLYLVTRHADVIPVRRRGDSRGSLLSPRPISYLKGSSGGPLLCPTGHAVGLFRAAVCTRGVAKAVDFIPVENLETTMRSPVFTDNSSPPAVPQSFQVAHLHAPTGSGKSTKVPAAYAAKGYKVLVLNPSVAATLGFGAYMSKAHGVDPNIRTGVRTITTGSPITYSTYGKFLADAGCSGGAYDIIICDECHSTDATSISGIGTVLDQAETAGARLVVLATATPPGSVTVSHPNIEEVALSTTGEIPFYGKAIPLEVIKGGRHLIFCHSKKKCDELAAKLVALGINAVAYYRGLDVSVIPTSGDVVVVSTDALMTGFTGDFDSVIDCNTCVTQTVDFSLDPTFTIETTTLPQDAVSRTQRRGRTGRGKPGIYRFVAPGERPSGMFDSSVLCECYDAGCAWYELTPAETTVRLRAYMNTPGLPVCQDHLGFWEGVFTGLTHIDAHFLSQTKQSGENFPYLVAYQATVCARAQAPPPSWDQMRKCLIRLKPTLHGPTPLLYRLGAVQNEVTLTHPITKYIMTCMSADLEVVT
Sequence (P27958 1658-1711): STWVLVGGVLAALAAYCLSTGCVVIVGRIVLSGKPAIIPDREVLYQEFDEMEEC
ASSAY_OVERVIEW: HCV NS3-4A protease assay in vitro (FRET-S substrate)
Assay type: biochemical

Please state, for each entry, its recorded IC50.
1. CC[C@H]1C[C@@]1(NC(=O)C1C[C@@H](OC(=O)N2Cc3cc4c(cc3C2)OCO4)CN1C(=O)[C@@H](NC(=O)[C@@H](NC(=O)OCC1c2ccccc2-c2ccccc21)C1CCCCC1)C(C)(C)C)C(=O)NS(=O)(=O)C1CC1 (some centres unmarked) [Compound 30aa]
2. C=C[C@H]1C[C@@]1(NC(=O)C1C[C@@H](OC(=O)N2Cc3cccc(F)c3C2)CN1C(=O)[C@@H](NC(=O)[C@@H](NC(=O)c1cnccn1)C1CCCCC1)C(C)(C)C)C(=O)NS(=O)(=O)C1CC1 (some centres unmarked) [Compound 30k]

## Output
1. < 30 nM
2. < 30 nM

---

STUDY_SYSTEM: HCV NS3-4A protease (Hepatitis C virus genotype 1a, UniProt P27958)
Construct: HCV NS3-4A protease
ASSAY_OVERVIEW: HCV NS3-4A protease assay in vitro (FRET-S substrate)
Format: biochemical
EXPERIMENTAL_SETUP: HCV NS3-4A protease inhibition, 37° C., class symbols; read-out: NS3-NS4A IC50
ATTRIBUTE_MEASURED: IC50

[
  {
    "COMPOUND": "O=C1N[C@]2(C(=O)NS(=O)(=O)C3CC3)C[C@H]2/C=C\\CCCCC[C@H](NS(=O)(=O)c2ccc(Cl)cc2)C(=O)N2C[C@H](OC(=O)N3Cc4cc5c(cc4C3)OCO5)C[C@@H]12 [Compound 16a]",
    "IC50": "< 0.03 µM"
  },
  {
    "COMPOUND": "CC(C)(C)OC(=O)N[C@H]1CCCCC/C=C\\[C@@H]2C[C@@]2(C(=O)O)NC(=O)[C@@H]2C[C@@H](OC(=O)N3Cc4cc5c(cc4C3)OCO5)CN2C1=O [Compound 11d]",
    "IC50": "> 0.2 µM"
  },
  {
    "COMPOUND": "O=C(N[C@H]1CCCCC/C=C\\[C@@H]2C[C@@]2(C(=O)NS(=O)(=O)C2CC2)NC(=O)[C@@H]2C[C@@H](OC(=O)N3Cc4cc5c(cc4C3)OCO5)CN2C1=O)OC1CCCC1 [Compound 12r]",
    "IC50": "< 0.03 µM"
  },
  {
    "COMPOUND": "O=C1N[C@]2(C(=O)NS(=O)(=O)C3CC3)C[C@H]2/C=C\\CCCCCN(C2CC2)C(=O)C2C[C@H](OC(=O)N3Cc4cc5c(cc4C3)OCO5)C[C@@H]12 (some centres unmarked) [Compound 21b]",
    "IC50": "0.03 to 0.2 µM"
  }
]

Pending compound:
## Input Quick one: IC50 for CC(C)S(=O)(=O)NC(=O)[C@@]12C[C@H]1/C=C\CCCCC[C@H](NC(=O)OC(C)(C)C)C(=O)N1C[C@H](OC(=O)N3Cc4cc5c(cc4C3)OCO5)C[C@H]1C(=O)N2 [Compound 12h] ?
## Output < 0.03 µM

---

STUDY_SYSTEM: HCV NS3-4A protease (Hepatitis C virus genotype 1a)
Construct: HCV NS3-4A protease
ASSAY_OVERVIEW: HCV NS3-4A protease assay in vitro (FRET-S substrate)
Type: biochemical
Would you kindly list IC50 for each of these compounds?

[
  {
    "COMPOUND": "CC[C@H]1C[C@@]1(NC(=O)C1C[C@@H](OC(=O)N2Cc3cc4c(cc3C2)OCCCO4)CN1C(=O)[C@@H](NC(=O)[C@@H](NC(=O)c1cnccn1)C1CCCCC1)C(C)(C)C)C(=O)NS(=O)(=O)C1CC1 (stereo partly drawn) [Compound 30h]",
    "IC50": "< 30 nM"
  },
  {
    "COMPOUND": "CC[C@H]1C[C@@]1(NC(=O)C1C[C@@H](OC(=O)N2Cc3cc4c(cc3C2)OCO4)CN1C(=O)[C@@H](NC(=O)[C@@H](NC(=O)OC(C)(C)C)C1CCCCC1)C(C)(C)C)C(=O)NS(=O)(=O)C1CC1 (stereo partly drawn) [Compound 30m]",
    "IC50": "< 30 nM"
  }
]

## Input Recorded IC50 of C=C[C@H]1C[C@@]1(NC(=O)C1C[C@@H](OC(=O)N2Cc3cc4c(cc3C2)OCO4)CN1C(=O)[C@@H](NC(=O)[C@@H](NC(=O)NC(C)(C)C)C1CCCCC1)C(C)(C)C)C(=O)NS(=O)(=O)C1CC1 (stereo partly drawn) [Compound 30ab] , please.
## Output < 30 nM

---

Could you please report measured pIC50 for the items listed next?
STUDY_SYSTEM: HCV NS3-4A protease (Hepatitis C virus genotype 1a)
Construct: HCV NS3-4A protease
ASSAY_OVERVIEW: HCV NS3-4A protease assay in vitro (FRET-S substrate)
Format: biochemical
EXPERIMENTAL_SETUP: HCV NS3-4A protease inhibition, 37° C., class symbols; read-out: NS3-NS4A IC50
pIC50: −log10 of the molar value.

[
  {
    "MOLECULE": "CC(C)S(=O)(=O)NC(=O)[C@@]12C[C@H]1/C=C\\CCCCCN(C)C(=O)N1CC(OC(=O)N3Cc4cc5c(cc4C3)OCO5)C[C@H]1C(=O)N2 (some centres unmarked) [Compound 27c]",
    "RESULT": "6.70 to 7.52"
  },
  {
    "MOLECULE": "O=C1N[C@]2(C(=O)NS(=O)(=O)C3CC3)C[C@H]2/C=C\\CCCCC[C@H](NS(=O)(=O)c2ccccc2)C(=O)N2C[C@H](OC(=O)N3Cc4cc5c(cc4C3)OCO5)C[C@@H]12 [Compound 16b]",
    "RESULT": "> 7.52"
  },
  {
    "MOLECULE": "O=C1N[C@]2(C(=O)NS(=O)(=O)C3CC3)C[C@H]2/C=C\\CCCCC[C@H](Nc2ccccc2)C(=O)N2C[C@H](OC(=O)N3Cc4cc5c(cc4C3)OCO5)C[C@@H]12 [Compound 15a]",
    "RESULT": "> 7.52"
  },
  {
    "MOLECULE": "CC(C)(C)OC(=O)N[C@H]1CCCCC/C=C\\[C@@H]2C[C@@]2(C(=O)NS(=O)(=O)C2CC2)NC(=O)[C@@H]2C[C@@H](OC(=O)N3Cc4ccc5c(c4C3)OCCCO5)CN2C1=O [Compound 12n]",
    "RESULT": "> 7.52"
  }
]

## Input Look up pIC50 for this molecule: CC(C)(C)OC(=O)N[C@H]1CCCCC/C=C\[C@@H]2C[C@@]2(C(=O)NS(=O)(=O)C2CC2)NC(=O)[C@@H]2C[C@@H](OC(=O)N3Cc4cc5c(cc4C3)OCCO5)CN2C1=O [Compound 12c]
## Output > 7.52

The origin of these recorded values is patent US8815796B2.
